Where do these numbers come from? They come from patent US20170022281A1.

Target: T1, human PRLR (Biacore antigen) (human, UniProt P16471 25-234, limits assumed)
T1 construct: The construct injected over captured antibody is not described (a soluble form is likely); also called huPRLR
T1 sequence: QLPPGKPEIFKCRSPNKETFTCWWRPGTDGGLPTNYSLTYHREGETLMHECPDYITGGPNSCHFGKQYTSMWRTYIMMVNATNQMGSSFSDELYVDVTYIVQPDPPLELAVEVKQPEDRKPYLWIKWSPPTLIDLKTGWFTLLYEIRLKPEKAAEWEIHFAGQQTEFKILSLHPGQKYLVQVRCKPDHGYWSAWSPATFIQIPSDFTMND
Test: SPR Biacore
pKd: −log10 of the molar value.
Documented pKd across a set of binders
measured attribute: pKd

>>> quantitative_result("Ab30 (antibody, human IgG1, kappa, V domains shown, humanized from Ab5; G1; also called Ab2 HC.1a and Ab2 LC.1a) VH: EVQLVQSGAEVKKPGSSVKVSCKASGYTFTSFWMHWVRQAPGQGLEWIGVIDPSDTYTNYNQKFKGRATLTVDESSSTAYMELSSLRSEDTAVYYCARGDYSNWFTYWGQGTLVTVSS VL: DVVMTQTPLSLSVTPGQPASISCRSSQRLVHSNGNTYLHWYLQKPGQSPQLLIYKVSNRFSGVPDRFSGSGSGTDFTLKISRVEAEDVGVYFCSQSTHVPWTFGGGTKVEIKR")
8.89
>>> quantitative_result("LFA102 (antibody, human IgG1, kappa, V domains shown, humanized IgG1 kappa comparator (WO 2008022295)) VH: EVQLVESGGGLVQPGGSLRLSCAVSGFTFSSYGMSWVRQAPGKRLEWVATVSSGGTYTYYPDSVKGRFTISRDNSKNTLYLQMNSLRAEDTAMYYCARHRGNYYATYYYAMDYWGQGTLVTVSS VL: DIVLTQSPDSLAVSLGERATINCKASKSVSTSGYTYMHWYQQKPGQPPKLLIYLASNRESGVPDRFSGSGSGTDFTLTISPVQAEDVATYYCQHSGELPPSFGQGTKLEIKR")
8.89
>>> quantitative_result("chAb8 (antibody, human IgG1, kappa, V domains shown, chimeric, murine variable and human G1/kappa constant regions) VH: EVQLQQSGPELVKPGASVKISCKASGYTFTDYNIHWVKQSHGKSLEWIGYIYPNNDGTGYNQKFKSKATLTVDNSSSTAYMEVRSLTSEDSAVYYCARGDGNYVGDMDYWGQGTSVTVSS VL: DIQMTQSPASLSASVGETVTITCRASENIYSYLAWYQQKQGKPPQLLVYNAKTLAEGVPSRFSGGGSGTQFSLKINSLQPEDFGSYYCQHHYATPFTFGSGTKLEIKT")
9.74
